The following compounds are listed with their measured growth inhibition values.
- assay-remarks: NCI Yeast Anticancer Drug Screen. Data for the rad50 strain (AID 155);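 note: 0% = growth of vehicle-only cultures of the same strain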
- condition-parameters: S. cerevisiae rad50 strain growth inhibition; at 50.0 µM; hits give high values
The panel holds about 79,000 compounds, 15% with a hit somewhere; the sample as a whole holds those more often.
measured-endpoint: growth inhibition (%)

- O=[N+]([O-])c1ccc(S(=O)(=O)N/N=C/c2cccc([N+](=O)[O-])c2)cc1: -8.15
- Cc1ccc(S(=O)(=O)NN=C2CCCCC2)cc1: -3.45
- COC(C)C(NC=O)C(=O)O (configuration not stated): 18.8
- CN(C)Cc1ccc(-c2cc3onc(-c4ccccc4)c3c(=O)n2C)cc1: -22.9
- CCN(CC)CCOC(=O)c1ccc(N=NC2Sc3nc4ccccc4n3C2=O)cc1 (configuration not stated): 27.9
- NC(CCCC(N)P(=O)(O)c1ccccc1)P(=O)(O)c1ccccc1 (configuration not stated): -37.9
- O=CN/C=C/c1ccccc1O: -5
- COC(=O)C1C(=C(c2ccccc2)c2ccccc2)C1c1ccccc1 (configuration not stated): -1.75
- C=C1CN(CCc2ccccc2)C(=S)S1: 55.6
- COc1cc(C2c3cc4c(cc3OC(C)(OC)C2C(C)=O)OCO4)cc(OC)c1O (configuration not stated): 4.05
- CCOC(=O)C(=O)Cc1ccccc1[N+](=O)[O-]: 26.1
- CCCCOC(=O)C1CSSCC(NC(C)=O)C(=O)N1 (configuration not stated): -2.05
- CCC(COC(=O)CC[C@@H](NC(=O)C(C)NC(=O)C(C)OC1C(O)C(CO)OC(OCc2ccccc2)C1NC(C)=O)C(N)=O)NC1c2ccccc2Nc2cccc([N+](=O)[O-])c21 (some centres not stated): 5.65
- C/C(CC(=O)Nc1ccc(Cc2ccc(Cl)cc2)cc1)=N/Nc1ccc([N+](=O)[O-])cc1[N+](=O)[O-]: 28.1
- CC1(C)OC(C(O)CO)C(C2COC(=S)O2)O1 (configuration not stated): 1.45
- O=C(O)CN=CC(O)C(O)C(O)C(O)CO (configuration not stated): -9.8
- CCC1(c2ccccc2)SC(N)=NC1=O (configuration not stated): 2.15

* * *

- assay-remarks: NCI Yeast Anticancer Drug Screen. Data for the bub3 strain (AID 167)
- condition-parameters: S. cerevisiae bub3 mutant strain, at 50.0 µM, hits give high values
- Procedure: Growth inhibition of yeast strains with defined genetic alterations is measured as a screen for potential anti-cancer activity. Selected strains with alterations in DNA damage repair or cell cycle control were exposed to compounds and growth inhibition was measured relative to vehicle treated controls. The strain used in this assay is bub3
About 79,000 compounds went through this panel and 15% of them were active in at least one assay; those are over-represented in the sample as a whole. Activity calls are given as the source filed them. Rule as the data show it: active = growth inhibition above about 70%; inactive = the rest.
measured-endpoint: growth inhibition

- CCOC(=O)C(N)CSSCC(N)C(=O)OCC (centres undefined): 8.95% (inactive)
- O=C(Cl)c1c(F)c(F)c(F)c(F)c1F: 1.25% (inactive)
- CC/C(=N/Nc1cn[nH]c(=O)c1Cl)c1ccccc1: 19% (inactive)
- O=S(=O)(c1ccccc1)C1(Sc2ccccc2)CC(Br)[C@@H](Br)C1 (some centres undefined): -6.65% (inactive)
- COc1ccc(Cl)cc1C(c1cc(Cl)ccc1OC)C(Cl)(Cl)Cl: -16.6% (inactive)
- Cc1nc2cc(C)c(C)cc2[nH]1: 8.9% (inactive)
- COc1cc(-c2ccc(N=C=O)c(OC)c2)ccc1N=C=O: 29.9% (inactive)
- O=C1CSC(c2c[nH]c3ccccc23)N1c1cccc([N+](=O)[O-])c1 (centres undefined): -59% (inactive)
- [CH3][Ga]([CH3])[O]c1ccccc1C=O: -30.3% (inactive)
- CC(C)(C)NC(=O)NCC1CCCC1NC(=O)NC(C)(C)C (centres undefined): 7.35% (inactive)
- c1ccc(C(Sc2ncnc3nc[nH]c23)c2ccccc2)cc1: 18.1% (inactive)
- C#CCN(CC#C)C(=O)C(=O)c1c[nH]c2ccc(OC)cc12: 52.4% (inactive)
- C=CCOCn1ccc(=O)[nH]c1=O: 3.2% (inactive)
- CCN(CC)c1ccc(C(=O)c2ccccc2C(=O)O)c(O)c1: -15.8% (inactive)
- O/N=C/c1ccc(O)c(O)c1: 10.8% (inactive)
- c1cc[n+]2cc3c(ccc4cc5cccc[n+]5cc43)cc2c1: -2.3% (inactive)
- NC(=O)N/N=C\CC(O)(C(F)(F)Cl)C(F)(F)Cl: 3.2% (inactive)
- c1ccc(C2OCCO2)cc1: -0.2% (inactive)
- COc1nc(NC2OC(CO)C(O)C(O)C2O)c(/C=N/O)c(=O)n1C (centres undefined): 7.85% (inactive)

* * *

The following compounds are listed with their measured growth inhibition values.
- assay-remarks: NCI Yeast Anticancer Drug Screen. Data for the cln2 rad14 strain (AID 165);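 note: 0% = growth equal to vehicle treated cultures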
- condition-parameters: S. cerevisiae cln2 rad14 strain, at 50.0 µM, hits give high values
- Procedure: Growth inhibition of yeast strains with defined genetic alterations is measured as a screen for potential anti-cancer activity. Selected strains with alterations in DNA damage repair or cell cycle control were exposed to compounds and growth inhibition was measured relative to vehicle treated controls. The strain used in this assay is cln2 rad14
The panel holds about 79,000 compounds, 15% with a hit somewhere; the sample as a whole holds those more often. Calls of active or inactive are those of the source. Cut-off read from the data, not from the text of the source: active = growth inhibition above about 70%; inactive = the rest.
measured-endpoint: growth inhibition

* Nc1c(S(=O)(=O)O)cc(Nc2cccc(S(=O)(=O)/C=C/S(=O)(=O)O)c2)c2c1C(=O)c1ccccc1C2=O | -2.45% (inactive)
* Cc1noc(N)c1Sc1ccc(Br)cc1 | 98.5% (active)
* O=C1c2ccccc2C(=O)N1CC(O)CCl (stereo not drawn) | 12% (inactive)
* C=CCNC(=S)Nc1ccc(OC(=O)NC(C)(C)C)cc1 | -16.8% (inactive)
* C[N+]([O-])(CCO)Cc1ccccc1 (stereo not drawn) | 0.95% (inactive)
* COC(=O)c1ccccc1NC(=O)c1ccccc1C(=O)O | -6.55% (inactive)
* CC(CO)CCC(=O)C(C)C1CC2(C)CCC3C(CCC4CC(O)CCC43C)C2C12SCCS2 (stereo not drawn) | 17.1% (inactive)
* CCOCCOC(=O)C1CCCC1=O (stereo not drawn) | -10.1% (inactive)
* [N-]=[N+]=NC(=O)c1cnn(-c2ccccc2)c1N | -27.4% (inactive)
* CC(=O)CC(=O)ON(C)C(C)=O | 8.45% (inactive)
* O=[N+]([O-])c1ccc(C[N+]2(CCC[N+]3(Cc4ccc([N+](=O)[O-])cc4)CCCC3)CCCC2)cc1 | 10.7% (inactive)
* [N-]=[N+]=Nc1ccccc1C(=O)NC(=O)Nc1ccccc1 | -19.2% (inactive)
* c1ccc2cc(-c3csc4ccccc34)ccc2c1 | -8.05% (inactive)
* CC1(c2ccc3cccc(F)c3c2)OC(=O)c2ccccc21 (stereo not drawn) | -68.8% (inactive)
* O=c1cc(-c2ccc3ccccc3n2)oc2ccccc12 | 28.3% (inactive)
* NC(CCCC(N)P(=O)(O)c1ccccc1)P(=O)(O)c1ccccc1 (stereo not drawn) | -9.65% (inactive)
* Cc1nn(C(=O)CC(=O)Nc2ccc(Cl)cc2)c(C)c1N=Nc1ccccc1F | -12.4% (inactive)
* C=C1SC(=Nc2ccc(Cl)cc2)N(c2nc(Cl)nc(Cl)n2)C12CCCCC2 | 14% (inactive)

* * *

- assay-remarks: NCI Yeast Anticancer Drug Screen. Data for the cln2 rad14 strain (AID 165);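 note: 0% = growth equal to vehicle treated cultures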
- condition-parameters: S. cerevisiae cln2 rad14 strain, at 50.0 µM
Compounds without any hit were thinned out: in the full panel of roughly 79,000, 15% have a hit. The source made the active and inactive calls. Cut-off read from the data, not from the text of the source: active = growth inhibition above about 70%; inactive = the rest.
Possible outcomes: active, inactive

* CCN(CC)CCn1ncc2ccc3c(c(=O)c4cccnc4n3CCN(CC)CC)c21 | inactive
* COc1ccc(C(=O)CCl)c(O)c1OC | inactive
* Cc1ccc(C(=O)c2c(C)cccc2C(=O)O)c(C)c1 | inactive
* O=C1CN(c2ccccc2)C(=O)CN1CCN1CC(=O)N(c2ccccc2)CC1=O | inactive
* COc1c(O)ccc(C(=O)O)c1N | inactive
* CCCC(C(=O)O)C(O)(CC(=O)O)C(=O)O (centres undefined) | inactive
* CN(C=O)C1CCC2C3CC=C4CC(OC=O)CCC4(C)C3CCC21C (centres undefined) | inactive
* COc1ccc2c(c1)-c1c3c(cc4ccnc(c14)C2=O)OCO3 | active
* CC(C)=CCCC(C)C=O (centres undefined) | inactive
* Cc1ccc2c(=O)cc(-c3ccccc3)[nH]c2n1 | inactive
* N#Cc1ccc(NC(=O)C(CC(=O)OCc2ccccc2)NC(=O)OCc2ccccc2)cc1 (centres undefined) | inactive
* Fc1cccc(CSc2cnnc(SCc3cccc(F)c3)c2SCc2cccc(F)c2)c1 | inactive
* Cc1cn(C2CC(O)C(CO)O2)c(=O)nc1NC1CCCCCCCCCCC1 (centres undefined) | inactive
* O=C(O)c1ccc(Br)cc1C(=O)O | inactive
* CCCC(O)c1ccccc1Cl (centres undefined) | inactive
* CCc1ccc(-c2c(-c3ccccc3)c(-c3ccccc3)c(-c3ccccc3)c(-c3ccccc3)c2-c2ccccc2)cc1 | inactive
* CCCCCCCCCO/N=C\c1c2c(O)c3c(O)c(C)c4c(c3c1O)C(=O)C(C)(O/C=C\C(OC)C(C)C(OC(C)=O)C(C)C(O)C(C)C(O)C(C)/C=C\C=C(\C)C(=O)N2)O4 (centres undefined) | inactive
* NC(=O)CCC(N)=O | inactive
* CC1=CCCCC1(C)/C(C)=N/Nc1ccc([N+](=O)[O-])cc1[N+](=O)[O-] (centres undefined) | inactive
* CC(CN(C)C)C(/C=C/c1ccccc1)=N\Nc1ccccc1 (centres undefined) | inactive
* CCCCCC1CC[N-]CC1.CCCCCC1CC[N-]CC1.N#C[S-].N#C[S-].[Cu] | inactive
* CCOC(=O)c1ccc(NCc2nc3ccccc3nc2C)cc1 | inactive
* OCCNNCCO | inactive
* COc1cc(N(CCC#N)CCC#N)ccc1/C(N=Nc1ccccc1)=N/NC(=O)c1cc(Br)ccc1O | inactive
* O=C(O)c1cccc(O)c1C(=O)O | inactive
* Cc1cccc(C(=O)OC(=O)c2cccc(C)c2)c1 | inactive
* O=C(O)c1c[nH]c(=O)[nH]c1=O | inactive
* COc1cccc2c1C(=O)OC2c1cccc2ccccc12 (centres undefined) | inactive
* OCc1nc2ccccc2[nH]1 | inactive

Source listed as PubChem BioAssay (NCI).
